- TEST TARGET: UniProt:P33981
- Sequence (P33981 whole entry): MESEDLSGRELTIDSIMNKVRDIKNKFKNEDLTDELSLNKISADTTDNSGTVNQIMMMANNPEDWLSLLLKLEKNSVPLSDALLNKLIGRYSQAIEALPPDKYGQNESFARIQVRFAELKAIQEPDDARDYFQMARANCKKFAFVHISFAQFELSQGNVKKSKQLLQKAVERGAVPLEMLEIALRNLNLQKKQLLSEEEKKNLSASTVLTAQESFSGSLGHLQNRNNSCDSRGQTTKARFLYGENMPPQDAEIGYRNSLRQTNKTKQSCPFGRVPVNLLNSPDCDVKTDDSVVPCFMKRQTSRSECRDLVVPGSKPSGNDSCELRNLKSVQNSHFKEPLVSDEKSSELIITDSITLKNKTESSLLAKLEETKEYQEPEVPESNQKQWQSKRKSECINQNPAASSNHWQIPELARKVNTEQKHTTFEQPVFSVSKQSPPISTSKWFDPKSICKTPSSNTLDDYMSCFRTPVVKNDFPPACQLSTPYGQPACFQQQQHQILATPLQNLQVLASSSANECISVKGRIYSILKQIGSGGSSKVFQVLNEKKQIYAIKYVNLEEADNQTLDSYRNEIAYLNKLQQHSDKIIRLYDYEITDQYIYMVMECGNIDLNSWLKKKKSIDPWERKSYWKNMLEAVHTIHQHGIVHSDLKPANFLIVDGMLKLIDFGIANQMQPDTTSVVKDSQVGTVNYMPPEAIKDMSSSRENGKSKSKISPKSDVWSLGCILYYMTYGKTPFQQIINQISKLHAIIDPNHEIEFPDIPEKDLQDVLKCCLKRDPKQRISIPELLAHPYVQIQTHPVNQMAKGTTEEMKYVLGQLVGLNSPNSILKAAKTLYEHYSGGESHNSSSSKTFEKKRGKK
- ASSAY COMMENT: Mps-1 kinase assay with 2 mM ATP (TR-FRET)
pIC50: −log10 of the molar value.
MEASURED QUANTITY: pIC50

The following compounds have reported results that may help.
| COMPOUND | TEST TARGET | pIC50 |
| --- | --- | --- |
| COc1cc(C(=O)NCC(C)(C)O)ccc1Nc1nc2ccc(-c3ccc(NC(=O)Cc4ccc(F)cc4)cc3)cn2n1 [Example 01.12] | UniProt:P33981 | ≥ 9.00 |
| COc1cc(S(=O)(=O)NC(C)(C)C)ccc1Nc1nc2ccc(-c3ccc(C(=O)NCc4ccc(F)cc4)cc3)cn2n1 [Example 12.52] | UniProt:P33981 | 7.85 |
| Cc1cc(-c2ccc3nc(Nc4ccc(S(C)(=O)=O)cc4OCC(F)(F)F)nn3c2)ccc1C(=O)NCc1ccc(F)cc1 [Example 04.2] | UniProt:P33981 | 7.82 |
| CCN(Cc1ccc(Nc2nc3ccc(-c4ccc(NC(=O)Cc5ccc(F)cc5)cc4)cn3n2)c(OC)c1)C(C)(C)CO [Example 12.16] | UniProt:P33981 | ≥ 9.00 |
| CCOc1cc(C(=O)N(C)CC)ccc1Nc1nc2ccc(-c3ccc(C(=O)NCc4ccc(F)cc4)cc3)cn2n1 [Example 12.56] | UniProt:P33981 | ≥ 9.00 |

We next turn to a different compound, shown below.
# input // query pIC50 value for entry CCS(=O)(=O)c1ccc(Nc2nc3ccc(-c4ccc(NC(=O)Cc5ccc(F)cc5)cc4)cn3n2)c(OC(F)F)c1 [Example 01.36]
# output ≥ 9.00
